# TARGET_UNDER_TEST: CETP (Homo sapiens (Human), UniProt P11597)
# Sequence (P11597 18-493 limits assumed): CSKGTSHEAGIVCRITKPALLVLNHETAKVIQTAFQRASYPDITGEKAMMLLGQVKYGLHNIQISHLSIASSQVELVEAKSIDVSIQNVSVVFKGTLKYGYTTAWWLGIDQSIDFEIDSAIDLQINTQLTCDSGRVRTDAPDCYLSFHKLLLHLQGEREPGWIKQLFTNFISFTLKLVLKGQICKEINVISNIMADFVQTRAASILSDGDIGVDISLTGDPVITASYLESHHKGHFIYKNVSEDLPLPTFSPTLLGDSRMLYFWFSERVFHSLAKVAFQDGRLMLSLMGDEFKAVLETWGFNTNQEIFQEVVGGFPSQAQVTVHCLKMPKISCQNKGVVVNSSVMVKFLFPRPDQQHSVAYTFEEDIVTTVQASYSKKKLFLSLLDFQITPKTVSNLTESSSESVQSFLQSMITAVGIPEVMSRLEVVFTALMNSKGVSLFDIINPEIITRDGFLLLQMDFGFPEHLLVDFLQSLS
# ASSAY_DETAILS: In vitro radioactive assay of CETP-catalyzed CE and TG transfer (RTA assay), 95% human serum
# Assay type: biochemical
# EXPERIMENTAL_CONTEXT: RTA assay in 95% human serum; read-out: RTA IC50 (CETP Inhibition)
Each entry below carries its reported IC50.
Value expressed in nM; do not type the unit.

[[record]]
smiles_data = "COc1ncc(-c2c(C)cc(C(=O)OC(C)(C)C)cc2C)cc1-c1ccc(N2CC(F)(F)C2)nc1CN1C(=O)O[C@H](c2cc(C(F)(F)F)cc(C(F)(F)F)c2)[C@@H]1C"
target_under_test = "CETP (Homo sapiens (Human), UniProt P11597)"
numeric_value = 5

[[record]]
smiles_data = "COc1ncc(-c2ccc(C(=O)O)cc2C)cc1-c1cnc(N2CCOCC2)nc1CN1C(=O)O[C@H](c2cc(C(F)(F)F)cc(C(F)(F)F)c2)[C@@H]1C"
target_under_test = "CETP (Homo sapiens (Human), UniProt P11597)"
numeric_value = 13

[[record]]
smiles_data = "COc1ncc(-c2c(C)n[nH]c2C)cc1-c1cnc(N2CCC2)nc1CN1C(=O)O[C@H](c2cc(C(F)(F)F)cc(C(F)(F)F)c2)[C@@H]1C"
target_under_test = "CETP (Homo sapiens (Human), UniProt P11597)"
numeric_value = 19

[[record]]
smiles_data = "COc1ncc(-c2c(C)n[nH]c2C)cc1-c1cnc(N2CC(F)C2)nc1CN1C(=O)O[C@H](c2cc(C(F)(F)F)cc(C(F)(F)F)c2)[C@@H]1C"
target_under_test = "CETP (Homo sapiens (Human), UniProt P11597)"
numeric_value = 5


Any idea what IC50 came out for COc1ncc(-c2ccc(C(=O)O)cc2C)cc1-c1ccc(N2CC(F)(F)C2)nc1CN1C(=O)O[C@H](c2cc(C(F)(F)F)cc(C(F)(F)F)c2)[C@@H]1C on CETP (Homo sapiens (Human), UniProt P11597)? 5

====

# TARGET_UNDER_TEST: CETP (Homo sapiens (Human), UniProt P11597)
# ASSAY_DETAILS: In vitro radioactive assay of CETP-catalyzed CE and TG transfer (RTA assay), 95% human serum
# Assay type: biochemical
# EXPERIMENTAL_CONTEXT: RTA assay in 95% human serum; read-out: RTA IC50 (CETP Inhibition)
PROPERTY_MEASURED: IC50 (nM)
Report the figure in nM without appending any unit label.

[[record]]
compound = "COc1ncc(-c2ccc(C(=O)O)cc2C)cc1-c1cnc(-n2ccnc2)nc1CN1C(=O)O[C@H](c2cc(C(F)(F)F)cc(C(F)(F)F)c2)[C@@H]1C [Example 43]"
numeric_value = 109

[[record]]
compound = "CCOc1ncc(C(F)(F)F)cc1-c1cnc(N2CC(F)C2)nc1CN1C(=O)O[C@H](c2cc(C(F)(F)F)cc(C(F)(F)F)c2)[C@@H]1C [Example 10]"
numeric_value = 12

[[record]]
compound = "CCCn1nc(C)c(-c2cnc(OC)c(-c3cnc(N4CC(F)C4)nc3CN3C(=O)O[C@H](c4cc(C(F)(F)F)cc(C(F)(F)F)c4)[C@@H]3C)c2)c1C [Example 18]"
numeric_value = 12

[[record]]
compound = "Cc1cc(C(=O)O)ccc1-c1cnc(C)c(-c2cnc(N3CC(F)C3)nc2CN2C(=O)O[C@H](c3cc(C(F)(F)F)cc(C(F)(F)F)c3)[C@@H]2C)c1 [Example 54]"
numeric_value = 26

[[record]]
compound = "Cc1cc(C(=O)O)ccc1-c1nc(C)c(-c2cnc(N3CC(F)(F)C3)nc2CN2C(=O)O[C@H](c3cc(C(F)(F)F)cc(C(F)(F)F)c3)[C@@H]2C)s1 [Example 52]"
numeric_value = 61


Test system CETP (Homo sapiens (Human), UniProt P11597); read-out IC50; what value for COc1ncc(-c2c(C)n[nH]c2C)cc1-c1cnc(N2CCCC2)nc1CN1C(=O)O[C@H](c2cc(C(F)(F)F)cc(C(F)(F)F)c2)[C@@H]1C [Example 25] ? 20

API: value(readout= IC50, system= CETP (Homo sapiens (Human), UniProt P11597), query= COc1ncc(-c2c(C)noc2C)cc1-c1cnc(N2CC(F)C2)nc1CN1C(=O)O[C@H](c2cc(C(F)(F)F)cc(C(F)(F)F)c2)[C@@H]1C [Example 7] ) 3

Recorded IC50 for COc1ncc(-c2c(C)n[nH]c2C)cc1-c1cnc(N2CCOCC2)nc1CN1C(=O)O[C@H](c2cc(C(F)(F)F)cc(C(F)(F)F)c2)[C@@H]1C [Example 26] with CETP (Homo sapiens (Human), UniProt P11597), please? 23

# query: IC50 | item CCn1nc(C)c(-c2cnc(OC)c(-c3cnc(N4CC(F)C4)nc3CN3C(=O)O[C@H](c4cc(C(F)(F)F)cc(C(F)(F)F)c4)[C@@H]3C)c2)c1C [Example 19] | system: CETP (Homo sapiens (Human), UniProt P11597) 9

Param readout= IC50; system= CETP (Homo sapiens (Human), UniProt P11597); entry= COc1ncc(-c2ccc(C(=O)O)cc2C)cc1-c1cnc(N2CC(F)(F)C2)nc1CN1C(=O)O[C@H](c2cc(C(F)(F)F)cc(C(F)(F)F)c2)[C@@H]1C [Example 42] ; returns value. 9

Provide value of IC50 for this record tested with CETP (Homo sapiens (Human), UniProt P11597): COc1ncc(CCC(=O)O)cc1-c1cnc(N2CC(F)C2)nc1CN1C(=O)O[C@H](c2cc(C(F)(F)F)cc(C(F)(F)F)c2)[C@@H]1C [Example 8] 92

Which IC50 is reported with CETP (Homo sapiens (Human), UniProt P11597) for this entry: COc1ncc(-c2c(C)nn(CC#N)c2C)cc1-c1cnc(N2CC(F)C2)nc1CN1C(=O)O[C@H](c2cc(C(F)(F)F)cc(C(F)(F)F)c2)[C@@H]1C [Example 21] ? 18

Form entry - test system: CETP (Homo sapiens (Human), UniProt P11597); read-out: IC50; compound: COc1ncc(-c2c(C)cc(-c3n[nH]c(=O)o3)cc2C)cc1-c1cnc(N2CC(F)C2)nc1CN1C(=O)O[C@H](c2cc(C(F)(F)F)cc(C(F)(F)F)c2)[C@@H]1C [Example 33] 8

IC50 of COc1ncc(C(C)C)cc1-c1cnc(N2CCC[C@@H]2C)nc1CN1C(=O)O[C@H](c2cc(C(F)(F)F)cc(C(F)(F)F)c2)[C@@H]1C [Example 30] on CETP (Homo sapiens (Human), UniProt P11597)? 18

Query the reported IC50 for CETP (Homo sapiens (Human), UniProt P11597); item: COc1ncc(-c2ccc(-c3n[nH]c(=O)o3)cc2C)cc1-c1cnc(N2CCOCC2)nc1CN1C(=O)O[C@H](c2cc(C(F)(F)F)cc(C(F)(F)F)c2)[C@@H]1C [Example 40] 29

====

# TARGET_UNDER_TEST: CETP (Homo sapiens (Human), UniProt P11597)
# ASSAY_DETAILS: In vitro radioactive assay of CETP-catalyzed CE and TG transfer (RTA assay), 95% human serum
# Type: biochemical
# EXPERIMENTAL_CONTEXT: RTA assay in 95% human serum; read-out: RTA IC50 (CETP Inhibition)
Entries annotated with measured IC50
Note: unit nM is implicit; provide only the numeric part.

[[record]]
compound = "COc1ncc(-c2ccc(C(=O)OC(C)(C)C)cc2C)cc1-c1ccc(N2CCOCC2)nc1CN1C(=O)O[C@H](c2cc(C(F)(F)F)cc(C(F)(F)F)c2)[C@@H]1C"
property_measured = "IC50"
unit_annotation = "nM"
numeric_value = 22

[[record]]
compound = "COc1ncc(-c2c(C)nn(CC(N)=O)c2C)cc1-c1cnc(N2CC(F)C2)nc1CN1C(=O)O[C@H](c2cc(C(F)(F)F)cc(C(F)(F)F)c2)[C@@H]1C"
property_measured = "IC50"
unit_annotation = "nM"
numeric_value = 22

[[record]]
compound = "Cc1noc(C)c1-c1cnc(N2CCC2)nc1CN1C(=O)O[C@H](c2cc(C(F)(F)F)cc(C(F)(F)F)c2)[C@@H]1C"
property_measured = "IC50"
unit_annotation = "nM"
numeric_value = 271


Checklist item: IC50 tested on CETP (Homo sapiens (Human), UniProt P11597), entry COc1ncc(-c2c(C)cc(C(=O)O)cc2C)cc1-c1ccc(N2CC(F)(F)C2)nc1CN1C(=O)O[C@H](c2cc(C(F)(F)F)cc(C(F)(F)F)c2)[C@@H]1C , value? 7

Tell me reported IC50 for COc1ncc(-c2c(C)cc(C(=O)O)cc2C)cc1-c1cnc(N2CC(F)(F)C2)cc1CN1C(=O)O[C@H](c2cc(C(F)(F)F)cc(C(F)(F)F)c2)[C@@H]1C , tested with CETP (Homo sapiens (Human), UniProt P11597). 52

Notebook entry, CETP (Homo sapiens (Human), UniProt P11597) assay: IC50 of COc1ncc(-c2ccc(C(=O)OC(C)(C)C)cc2C)cc1-c1ccc(N2CC(F)C2)nc1CN1C(=O)O[C@H](c2cc(C(F)(F)F)cc(C(F)(F)F)c2)[C@@H]1C = ? 15

Form entry - test system: CETP (Homo sapiens (Human), UniProt P11597); read-out: IC50; compound: COc1ncc(-c2ccc(C(=O)Nc3nnn[nH]3)cc2C)cc1-c1cnc(N2CCOCC2)nc1CN1C(=O)O[C@H](c2cc(C(F)(F)F)cc(C(F)(F)F)c2)[C@@H]1C 11

Item: COc1ncc(-c2ccc(C(=O)O)cc2C)cc1-c1cnc(N2CC(F)C2)nc1CN1C(=O)O[C@H](c2cc(F)cc(C(F)(F)F)c2)[C@@H]1C Test system: CETP (Homo sapiens (Human), UniProt P11597) Read-out: IC50 Value: ? 12

Enter reported IC50 observed with CETP (Homo sapiens (Human), UniProt P11597) for COc1ncc(C(C)C)cc1-c1cnc(N2CCC2)nc1CN1C(=O)O[C@H](c2cc(C(F)(F)F)cc(C(F)(F)F)c2)[C@@H]1C 5

Form field: IC50 recorded for COc1ncc(-c2c(C)cc(-c3n[nH]c(=O)o3)cc2C)cc1-c1cnc(N2CCOCC2)nc1CN1C(=O)O[C@H](c2cc(C(F)(F)F)cc(C(F)(F)F)c2)[C@@H]1C with CETP (Homo sapiens (Human), UniProt P11597) (enter value) 10

Notebook: pull reported IC50 for CETP (Homo sapiens (Human), UniProt P11597), entry Cc1cc(C(=O)O)ccc1-c1nc(C(C)(C)C)c(-c2cnc(N3CC(F)(F)C3)nc2CN2C(=O)O[C@H](c3cc(C(F)(F)F)cc(C(F)(F)F)c3)[C@@H]2C)s1 800

Identify the measured IC50 of COc1ncc(C(F)(F)F)cc1-c1cnc(N2CC(F)C2)nc1CN1C(=O)O[C@H](c2cc(C(F)(F)F)cc(C(F)(F)F)c2)[C@@H]1C for CETP (Homo sapiens (Human), UniProt P11597). 14

GET /values?readout=IC50&system=CETP (Homo sapiens (Human), UniProt P11597)&item= COc1ncc(-c2ccc(C(=O)O)cc2C)cc1-c1ccc(N2CCOCC2)nc1CN1C(=O)O[C@H](c2cc(C(F)(F)F)cc(C(F)(F)F)c2)[C@@H]1C 9

For the record COc1ncc(-c2c(C)nn(C)c2C)cc1-c1cnc(N2CC(F)C2)nc1CN1C(=O)O[C@H](c2cc(C(F)(F)F)cc(C(F)(F)F)c2)[C@@H]1C , what value of IC50 is listed for CETP (Homo sapiens (Human), UniProt P11597)? 3

Find the measured IC50: item COc1ncc(-c2ccc(-c3n[nH]c(=O)o3)cc2C)cc1-c1cnc(N2CC(F)C2)nc1CN1C(=O)O[C@H](c2cc(C(F)(F)F)cc(C(F)(F)F)c2)[C@@H]1C , target or system CETP (Homo sapiens (Human), UniProt P11597). 12

Tell me reported IC50 for COc1ncc(-c2c(C)cc(C(=O)O)cc2C)cc1-c1cnc(N2CC(F)C2)nc1CN1C(=O)O[C@H](c2cc(C(F)(F)F)cc(C(F)(F)F)c2)[C@@H]1C , tested with CETP (Homo sapiens (Human), UniProt P11597). 7

Any idea what IC50 came out for COc1ncc(C(C)(O)C(F)(F)F)cc1-c1cnc(N2CC(F)C2)nc1CN1C(=O)O[C@H](c2cc(C(F)(F)F)cc(C(F)(F)F)c2)[C@@H]1C (mixture of isomers) on CETP (Homo sapiens (Human), UniProt P11597)? 14

Hi! What's the reported IC50 for COc1ncc(C(C)C)cc1-c1cnc(N2CC(F)C2)nc1CN1C(=O)O[C@H](c2cc(F)cc(F)c2)[C@@H]1C on CETP (Homo sapiens (Human), UniProt P11597)? 16

What reported IC50 corresponds to Cc1cc(C(=O)O)ccc1-c1nc(C(C)(C)C)c(-c2cnc(N3CC(F)C3)nc2CN2C(=O)O[C@H](c3cc(C(F)(F)F)cc(C(F)(F)F)c3)[C@@H]2C)s1 on CETP (Homo sapiens (Human), UniProt P11597)? 197

What reported IC50 corresponds to Cc1cc(C(=O)O)ccc1-c1nc(C)c(-c2cnc(N3CC(F)C3)nc2CN2C(=O)O[C@H](c3cc(C(F)(F)F)cc(C(F)(F)F)c3)[C@@H]2C)s1 on CETP (Homo sapiens (Human), UniProt P11597)? 33

Form entry - test system: CETP (Homo sapiens (Human), UniProt P11597); read-out: IC50; compound: COc1ncc(-c2ccc(C(=O)O)cc2C)cc1-c1cnc(N2CC(F)(F)C2)nc1CN1C(=O)O[C@H](c2cc(F)cc(C(F)(F)F)c2)[C@@H]1C 9

Request: IC50, test system CETP (Homo sapiens (Human), UniProt P11597), entry COc1ncc(-c2c(C)n[nH]c2C)cc1-c1cnc(N2CC(F)(F)C2)nc1CN1C(=O)O[C@H](c2cc(C(F)(F)F)cc(C(F)(F)F)c2)[C@@H]1C 15
